- target_or_system: T1, K48-linked diubiquitin (human, UniProt P0CG48 1-76, isopeptide bond between Lys48 of one ubiquitin and the C-terminal Gly of the other)
- T1 construct: Boston Biochem
- assay_summary: SPR Biacore, antigen immobilized
Each entry below lists one item and its recorded kon value.
quantity: kon

INSERT INTO measurements (binder, experimental_result) VALUES
  ('Fab apu2.05 (Fab, V domains shown) VH: EVQLVESGGGLVQPGGSLRLSCAASGFNISYSSMHWVRQAPGKGLEWVASIYSYYSYTSYADSVKGRFTISADTSKNTAYLQMNSLRAEDTAVYYCARSYSYRMAFDYWGQGTLVTVSS VL: DIQMTQSPSSLSASVGDRVTITCRASQSVSSAVAWYQQKPGKAPKLLIYSASSLYSGVPSRFSGSRSGTDFTLTISSLQPEDFATYYCQQSSYSSLITFGQGTKVEIK', '1.2e+06 M⁻¹ s⁻¹'),
  ('Fab apu2.01 (Fab, V domains shown) VH: EVQLVESGGGLVQPGGSLRLSCAASGFNISYSSMHWVRQAPGKGLEWVASIYSYYSYTSYADSVKGRFTISADTSKNTAYLQMNSLRAEDTAVYYCARSYSYSEALDYWGQGTLVTVSS VL: DIQMTQSPSSLSASVGDRVTITCRASQSVSSAVAWYQQKPGKAPKLLIYSASSLYSGVPSRFSGSRSGTDFTLTISSLQPEDFATYYCQQSSYSSLITFGQGTKVEIK', '633000 M⁻¹ s⁻¹'),
  ('Fab apu2.07 (Fab, V domains shown) VH: EVQLVESGGGLVQPGGSLRLSCAASGFNISYSSMHWVRQAPGKGLEWVASIYSYYSYTSYADSVKGRFTISADTSKNTAYLQMNSLRAEDTAVYYCARSYSYHLGMDYWGQGTLVTVSS VL: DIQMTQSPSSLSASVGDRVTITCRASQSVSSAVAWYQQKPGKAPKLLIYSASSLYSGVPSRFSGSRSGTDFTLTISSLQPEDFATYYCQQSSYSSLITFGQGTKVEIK', '2.7e+06 M⁻¹ s⁻¹');
